Test system: HT29 colon
Test: NCI-60 one-dose screen, 48 h (100 = growth as untreated, 0 = no growth, -100 = all killed)
Conditions: 10 µM
Description: Growth inhibition of the HT29 human tumor cell line is measured as a screen for anti-cancer activity. Cells are grown in 96 well plates and exposed to the test compound for 48 hours. Compounds are tested at a single concentration, which is 10^-5 M for most compounds. The reported endpoint is percent growth (GI% or GIPRCNT), where numbers from 0 - 100% represent growth inhibition, and numbers from -100% - 0 represent cell death. For example, a value of 40 represents 60% growth inhibition. […]
About 83,000 compounds went through this panel and 20% of them were active in at least one assay; those are over-represented in the sample as a whole. Active and inactive are the calls of the source. How the source made its calls: active means growth percent below 10; inactive means the rest.
Observed Property: growth

| Molecule | Assayed Target | growth |
| --- | --- | --- |
| Clc1ccc(-c2nnc(-c3cccc4ccccc34)o2)cc1 | HT29 colon | 89.3% (inactive) |
| S=C1NCc2cncnc2N1 | HT29 colon | 104% (inactive) |
| Cc1cc(C)c(CC(=O)O)c(C)c1 | HT29 colon | 99.4% (inactive) |
| COc1ccc(Oc2c(I)cc(CC(NC(C)=O)C(=O)O)cc2I)cc1 (configuration not stated) | HT29 colon | 85.2% (inactive) |
| O=[N+]([O-])c1ccc(-c2noc(-c3cccs3)n2)cc1 | HT29 colon | 92.5% (inactive) |
| CC1=NN(c2ccccc2)C(=O)/C1=C\N1CC(=O)NC1=S | HT29 colon | 103% (inactive) |
| C/C(=C\c1ccc([N+](=O)[O-])cc1)C(=O)O | HT29 colon | 107% (inactive) |
| Nc1nc2c(c(-c3nc(N)nc4c3CCc3ccccc3-4)n1)CCc1ccccc1-2 | HT29 colon | 112% (inactive) |
| NC(=O)N/N=C\c1ccco1 | HT29 colon | 103% (inactive) |
| CN(C)c1nc2c([nH]1)c(=O)n(C)c(=O)n2C | HT29 colon | 102% (inactive) |

For each entry beneath this line, provide reported growth.
1. N#CCCN(CCCN1CCOCC1)CN1C(=O)c2ccccc2C1=O
2. Cc1cc(C)c(N)c(S(=O)(=O)O)c1

Result ::
1. 107% (inactive)
2. 103% (inactive)
